- Test system: Pi-Rluc-GT3a-P89L/A166T replicon
- measurement notes: Transient replicon antiviral assay, Pi-Rluc-GT3a-P89L/A166T in 1C cells
- Format: cell-based, HCV
- protocol conditions: Hepatitis C virus, GT3A, 72 h; transient transfection, 1C cells, 3 days, renilla luciferase, mean of at least two experiments
reported property: EC50 (µM)
The reply should contain only the number, in µM.

compound	EC50, µM
COC(=O)N[C@H](C(=O)N1CCC[C@H]1c1nc(-c2ccc(-c3ccc(-c4c[nH]c([C@@H]5CCCN5C(=O)[C@@H](NC(=O)OC)C(C)C)n4)cc3)cc2)c[nH]1)C(C)C [BMS-790052]	0.00031

Input COc1ccc2c(O[C@@H]3C[C@H]4C(=O)N[C@]5(C(=O)O)C[C@H]5/C=C\CCCCC[C@H](NC(=O)OC5CCCC5)C(=O)N4C3)cc(-c3csc(NC(C)C)n3)nc2c1 [BILN-2061] , output reported EC50. 0.447

Input C/C=C/C[C@@H](C)[C@@H](O)[C@H]1C(=O)N[C@@H](CC)C(=O)N(C)[C@H](SCCN(C)C)C(=O)N(C)[C@@H](CC(C)(C)O)C(=O)N[C@@H](C(C)C)C(=O)N(C)[C@@H](CC(C)C)C(=O)N[C@@H](C)C(=O)N[C@H](C)C(=O)N(C)[C@@H](CC(C)C)C(=O)N(C)[C@@H](CC(C)C)C(=O)N(C)[C@@H](C(C)C)C(=O)N1C [SCY-635] , output reported EC50. 0.078

Input CCC[C@H](NC(=O)[C@@H]1[C@H]2CCC[C@H]2CN1C(=O)[C@@H](NC(=O)[C@@H](NC(=O)c1cnccn1)C1CCCCC1)C(C)(C)C)C(=O)C(=O)NC1CC1 [Telaprevir, telaprevir] , output reported EC50. 0.65

----------
- System: Pi-Rluc-GT3a-P89L/A166T replicon
- measurement notes: Transient replicon antiviral assay, Pi-Rluc-GT3a-P89L/A166T in 1C cells
- Assay type: cell-based, HCV
- protocol conditions: Hepatitis C virus, GT3A, 72 h; transient transfection, 1C cells, 3 days, renilla luciferase, mean of at least two experiments
reported property: EC50 (nM)
The reply should contain only the number, in nM.

Known results for molecules:
molecule	EC50, nM
CN(C)CCN(C)[C@H]1COc2ccccc2-c2c(C3CCCCC3)c3ccc(C(=O)O)cc3n2C1	277
CC(C)(C)NC(=O)N[C@H](C(=O)N1C[C@H]2[C@@H]([C@H]1C(=O)NC(CC1CCC1)C(=O)C(N)=O)C2(C)C)C(C)(C)C (some centres unmarked)	460
CNC(=O)c1c(-c2ccc(F)cc2)oc2cc(N(CCO)S(C)(=O)=O)c(C3CC3)cc12	2.8

Input CCc1cc(CC[C@]2(C3CCCC3)CC(O)=C(Cc3nc4nc(C)cc(C)n4n3)C(=O)O2)cc(CC)n1 , output reported EC50. 2040

Input C=C[C@@H]1C[C@]1(NC(=O)[C@@H]1C[C@@H]2CN1C(=O)[C@H](C(C)(C)C)NC(=O)O[C@@H]1C[C@H]1CCCCCc1nc3ccc(OC)cc3nc1O2)C(=O)NS(=O)(=O)C1CC1 , output reported EC50. 60

----------
Listed below: pEC50 values for each entry.
- Test system: Pi-Rluc-GT3a-P89L/A166T replicon
- measurement notes: Transient replicon antiviral assay, Pi-Rluc-GT3a-P89L/A166T in 1C cells
- Assay type: cell-based, HCV
- protocol conditions: transient transfection, 1C cells, 3 days, renilla luciferase, mean of at least two experiments
API: returns pEC50 as number; meaning -log10 of concentration in mol/L.

smi	assay value
CC(C)OC(=O)[C@H](C)N[P@](=O)(OC[C@H]1O[C@@H](n2ccc(=O)[nH]c2=O)[C@](C)(F)[C@@H]1O)Oc1ccccc1	7.92
CC1=CC[C@H](C(=O)N(c2cc(C#CC(C)(C)C)sc2C(=O)O)[C@H]2CC[C@](O)(CO[C@H]3CCOC3)CC2)CC1	6.64

Quote pEC50 with test system Pi-Rluc-GT3a-P89L/A166T replicon for Fc1ccccc1-c1nc2ccn(Cc3ccc(-c4ccc(C(F)(F)F)cc4C(F)(F)F)nn3)cc-2n1 7.38

Quote pEC50 with test system Pi-Rluc-GT3a-P89L/A166T replicon for COC(=O)N[C@H](C(=O)N1CC2(CC2)C[C@H]1c1nc(-c2ccc3c(c2)C(F)(F)c2cc(-c4ccc5[nH]c([C@@H]6[C@H]7CC[C@H](C7)N6C(=O)[C@@H](NC(=O)OC)C(C)C)nc5c4)ccc2-3)c[nH]1)C(C)C 7.04

Quote pEC50 with test system Pi-Rluc-GT3a-P89L/A166T replicon for CC[C@@H]1C[C@]1(NC(=O)[C@@H]1C[C@@H](Oc2cc(-c3csc(NC(C)C)n3)nc3c(Cl)c(OCCN4CCOCC4)ccc23)CN1C(=O)[C@@H](NC(=O)O[C@@H]1C[C@@H]2C[C@@H]2C1)C(C)(C)C)C(=O)O 5.78

----------
- Tested on: Pi-Rluc-GT3a-P89L/A166T replicon
- measurement notes: Transient replicon antiviral assay, Pi-Rluc-GT3a-P89L/A166T in 1C cells
- Format: cell-based, HCV
- protocol conditions: EC50 GT3a P89L/A166T divided by EC50 GT1b
Short version: GT3a(P89L/A166T)/Ib EC50 Ratio at least 20 is satisfied, less is not satisfied.

molecule	assigned label
CCC[C@H](NC(=O)[C@@H]1[C@H]2CCC[C@H]2CN1C(=O)[C@@H](NC(=O)[C@@H](NC(=O)c1cnccn1)C1CCCCC1)C(C)(C)C)C(=O)C(=O)NC1CC1	not satisfied

Below: the item to evaluate.
For this molecule, is measured GT3a(P89L/A166T)/Ib EC50 Ratio 20 or higher? C/C=C/C[C@@H](C)[C@@H](O)[C@H]1C(=O)N[C@@H](CC)C(=O)N(C)[C@H](SCCN(C)C)C(=O)N(C)[C@@H](CC(C)(C)O)C(=O)N[C@@H](C(C)C)C(=O)N(C)[C@@H](CC(C)C)C(=O)N[C@@H](C)C(=O)N[C@H](C)C(=O)N(C)[C@@H](CC(C)C)C(=O)N(C)[C@@H](CC(C)C)C(=O)N(C)[C@@H](C(C)C)C(=O)N1C not satisfied

----------
- Tested on: Pi-Rluc-GT3a-P89L/A166T replicon
- measurement notes: Transient replicon antiviral assay, Pi-Rluc-GT3a-P89L/A166T in 1C cells
- Type: cell-based, HCV
- protocol conditions: EC50 GT3a P89L/A166T divided by EC50 GT1b
Short version: GT3a(P89L/A166T)/Ib EC50 Ratio at least 20 is True, less is False.

Would you please look over these solved cases?
compound	tested system	assigned label
Fc1ccccc1-c1nc2ccn(Cc3ccc(-c4ccc(C(F)(F)F)cc4C(F)(F)F)nn3)cc-2n1	Pi-Rluc-GT3a-P89L/A166T replicon	False
CC(C)OC(=O)[C@H](C)N[P@](=O)(OC[C@H]1O[C@@H](n2ccc(=O)[nH]c2=O)[C@](C)(F)[C@@H]1O)Oc1ccccc1	Pi-Rluc-GT3a-P89L/A166T replicon	False
C=C[C@@H]1C[C@]1(NC(=O)[C@@H]1C[C@@H]2CN1C(=O)[C@H](C(C)(C)C)NC(=O)O[C@@H]1C[C@H]1CCCCCc1nc3ccc(OC)cc3nc1O2)C(=O)NS(=O)(=O)C1CC1	Pi-Rluc-GT3a-P89L/A166T replicon	True
CC(C)(C)NC(=O)N[C@H](C(=O)N1C[C@H]2[C@@H]([C@H]1C(=O)NC(CC1CCC1)C(=O)C(N)=O)C2(C)C)C(C)(C)C (stereo partly drawn)	Pi-Rluc-GT3a-P89L/A166T replicon	False
CNC(=O)c1c(-c2ccc(F)cc2)oc2cc(N(CCO)S(C)(=O)=O)c(C3CC3)cc12	Pi-Rluc-GT3a-P89L/A166T replicon	False
CC1=CC[C@H](C(=O)N(c2cc(C#CC(C)(C)C)sc2C(=O)O)[C@H]2CC[C@](O)(CO[C@H]3CCOC3)CC2)CC1	Pi-Rluc-GT3a-P89L/A166T replicon	True
CN(C)CCN(C)[C@H]1COc2ccccc2-c2c(C3CCCCC3)c3ccc(C(=O)O)cc3n2C1	Pi-Rluc-GT3a-P89L/A166T replicon	False
COC(=O)N[C@H](C(=O)N1CC2(CC2)C[C@H]1c1nc(-c2ccc3c(c2)C(F)(F)c2cc(-c4ccc5[nH]c([C@@H]6[C@H]7CC[C@H](C7)N6C(=O)[C@@H](NC(=O)OC)C(C)C)nc5c4)ccc2-3)c[nH]1)C(C)C	Pi-Rluc-GT3a-P89L/A166T replicon	True

For this compound, is measured GT3a(P89L/A166T)/Ib EC50 Ratio 20 or higher? COC(=O)N[C@H](C(=O)N1CCC[C@H]1c1nc(-c2ccc(-c3ccc(-c4c[nH]c([C@@H]5CCCN5C(=O)[C@@H](NC(=O)OC)C(C)C)n4)cc3)cc2)c[nH]1)C(C)C False

For this compound, is measured GT3a(P89L/A166T)/Ib EC50 Ratio 20 or higher? CCc1cc(CC[C@]2(C3CCCC3)CC(O)=C(Cc3nc4nc(C)cc(C)n4n3)C(=O)O2)cc(CC)n1 False

For this compound, is measured GT3a(P89L/A166T)/Ib EC50 Ratio 20 or higher? CC[C@@H]1C[C@]1(NC(=O)[C@@H]1C[C@@H](Oc2cc(-c3csc(NC(C)C)n3)nc3c(Cl)c(OCCN4CCOCC4)ccc23)CN1C(=O)[C@@H](NC(=O)O[C@@H]1C[C@@H]2C[C@@H]2C1)C(C)(C)C)C(=O)O True

For this compound, is measured GT3a(P89L/A166T)/Ib EC50 Ratio 20 or higher? COc1ccc2c(O[C@@H]3C[C@H]4C(=O)N[C@]5(C(=O)O)C[C@H]5/C=C\CCCCC[C@H](NC(=O)OC5CCCC5)C(=O)N4C3)cc(-c3csc(NC(C)C)n3)nc2c1 True
